Hello, the source for this data is paper doi:10.1101/2024.08.19.608619, in case you need it.

experiment summary: Hepatic microsomal stability, HLM
Assay type: in vitro ADME, human
experimental conditions: In vitro human liver microsomal stability
The entries below come with measured t_half values attached.
Please reply with the bare figure in min and do not write the unit itself.

Some molecules with recorded t_half:
CCNC(=O)c1cc2c(NC(c3ccc4c(c3)OCCO4)C(C)C)ncnc2[nH]1 (stereo not drawn) [ASAP-0008444] : 19.7
CC(C)[C@@H](Nc1ncnc2[nH]c(-c3ccc4cncn4c3)cc12)c1ccc2c(c1)S(=O)(=O)CCC2 [ASAP-0011215] : 8.0

Shift focus to the following entry.
Req: Consider the molecule COc1ccc([C@@H](Cc2nnn[nH]2)NC(=O)c2ncnc3[nH]ccc23)cc1 [ASAP-0008340] and give its measured t_half.
Resp: 313.8

###

The entries below come with measured fu values attached.
experiment summary: Protein binding
Type: in vitro ADME
experimental conditions: In vitro fetal calf serum protein binding
Give a plain numeric answer without units written out.

C[C@H](C(=O)O)[C@@H](NC(=O)c1ncnc2[nH]ccc12)c1ccc(Br)cc1 : 0.043

Req: Consider the molecule CC(C)[C@H](Nc1ncnc2[nH]c(-c3cnn(C)c3C#N)cc12)c1ccc2c(n1)OCCO2 and give its measured fu.
Resp: 0.072

Req: Consider the molecule CC(C)C(Nc1ncnc2[nH]c(C(=O)NC3CCN(C)C3)cc12)c1ccc2c(c1)S(=O)(=O)CCC2 (centres unmarked) and give its measured fu.
Resp: 0.173

Req: Consider the molecule COc1ccc([C@H](Cc2nnn[nH]2)NC(=O)c2ncnc3[nH]ccc23)cc1 and give its measured fu.
Resp: 0.061

Req: Consider the molecule CC(C)[C@H](Nc1ncnc2[nH]ccc12)c1ccc2c(c1)S(=O)(=O)CCC2 and give its measured fu.
Resp: 0.095

Req: Consider the molecule CNCc1cc(-c2cc3c(N[C@@H](c4ccc5c(c4)S(=O)(=O)CCC5)C(C)C)ncnc3[nH]2)co1 and give its measured fu.
Resp: 0.08

Req: Consider the molecule CC(C)[C@@H](Nc1ncnc2[nH]c(-c3cnn(C)c3C#N)cc12)c1ccc2c(n1)OCCO2 and give its measured fu.
Resp: 0.038

Req: Consider the molecule Cn1ncc(-c2cc3c(N[C@@H](c4ccc5c(n4)OCCO5)C(C)(C)C)ncnc3[nH]2)c1C#N and give its measured fu.
Resp: 0.021

###

The entries below come with measured perc_min_measured values attached.
Test system: HeLa-ACE2 cells
experimental conditions: HeLa-ACE2 cytotoxicity; lowest measured response of the dose series
Please reply with the bare figure in % and do not write the unit itself.

Cc1nn(C)cc1-c1cc2c(NC(c3ccc4c(c3)S(=O)(=O)CCC4)C(C)C)ncnc2[nH]1 (stereo not shown) [ASAP-0011446] : 80.92
CNCc1cc(-c2cc3c(N[C@@H](c4ccc5c(c4)S(=O)(=O)CCC5)C(C)C)ncnc3[nH]2)co1 [ASAP-0011176] : 77.721
CC(C)[C@@H](Nc1ncnc2[nH]cc(C(=O)NC3CC3)c12)c1ccc2c(c1)S(=O)(=O)CCC2 [ASAP-0011207] : 97.44
CCNC(=O)c1cc2c(N[C@@H](c3ccc4c(c3)S(=O)(=O)NCC4)C(C)C)ncnc2[nH]1 [ASAP-0011076] : 92.285
CC(C)(C)[C@H](Nc1ncnc2[nH]c(-c3cnn(CC(N)=O)c3)cc12)c1ccc2c(c1)OCCO2 (single isomer, unassigned) [ASAP-0012330] : 88.572
COc1ccc([C@@H](Cc2nnn[nH]2)NC(=O)c2ncnc3[nH]ccc23)cc1 [ASAP-0015384] : 83.484

Req: Consider the compound CCNC(=O)c1cc2c(N[C@H](c3ccc4c(c3)OCCO4)C(C)C)ncnc2[nH]1 (single isomer, unassigned) [ASAP-0013827] and give its measured perc_min_measured.
Resp: 83.696

###

experiment summary: Hepatic microsomal stability, HLM
Format: in vitro ADME, human
experimental conditions: In vitro human liver microsomal stability; no cofactor
The entries below come with measured perc_remaining_no_cofactor values attached.
Please reply with the bare figure in % and do not write the unit itself.

Req: Consider the molecule CC(C)[C@H](Nc1ncnc2[nH]c(-c3cnn(CC(N)=O)c3)cc12)c1ccc2c(n1)OCCO2 and give its measured perc_remaining_no_cofactor.
Resp: 90.0

Req: Consider the molecule CCNC(=O)c1cc2c(N[C@@H](c3ccc4c(c3)S(=O)(=O)CCO4)C(C)C)ncnc2[nH]1 (racemic) and give its measured perc_remaining_no_cofactor.
Resp: 95.0

Req: Consider the molecule CC(C)C(Nc1ncnc2[nH]ccc12)c1ccc2c(c1)S(=O)(=O)CCC2 (stereo not shown) and give its measured perc_remaining_no_cofactor.
Resp: 99.0

Req: Consider the molecule CC(C)[C@@H](Nc1ncnc2[nH]c(-c3cnn(C)c3)cc12)c1ccc2c(c1)S(=O)(=O)CCC2 (single isomer, unassigned) [ASAP-0012329] and give its measured perc_remaining_no_cofactor.
Resp: 105.0

Req: Consider the molecule CC(C)[C@@H](Nc1ncnc2[nH]c(-c3cnn(C)c3)cc12)c1ccc2c(c1)S(=O)(=O)CCC2 [ASAP-0008678] and give its measured perc_remaining_no_cofactor.
Resp: 102.0

Req: Consider the molecule CCNC(=O)c1cc2c(N[C@@H](c3ccc4c(c3)S(=O)(=O)NCC4)C(C)C)ncnc2[nH]1 and give its measured perc_remaining_no_cofactor.
Resp: 107.0

Req: Consider the molecule CC(C)[C@@H](Nc1ncnc2[nH]c(-c3cnn(C)c3)cc12)c1ccc2c(c1)S(=O)(=O)NCC2 and give its measured perc_remaining_no_cofactor.
Resp: 98.0

###

experiment summary: Hepatic microsomal stability, HLM
Format: in vitro ADME, human
experimental conditions: In vitro human liver microsomal stability
Label T for high-side clint (at or above 60 µL/min/mg) and F for low-side clint (below it).

CC(C)[C@H](Nc1ncnc2[nH]c(-c3cnn(CC(N)=O)c3)cc12)c1ccc2c(n1)OCCO2 [ASAP-0012307] : F
CC(C)[C@H](Nc1ncnc2[nH]c(-c3cnn(CC(=O)N(C)C)c3)cc12)c1ccc2c(c1)S(=O)(=O)CCC2 [ASAP-0013744] : T
CNCc1cc(-c2cc3c(N[C@@H](c4ccc5c(c4)S(=O)(=O)CCC5)C(C)C)ncnc3[nH]2)co1 [ASAP-0010745] : F
CC(C)[C@H](Nc1ncnc2[nH]c(-c3cnn(C)c3C#N)cc12)c1ccc2c(c1)OCCO2 [ASAP-0010980] : T
CNCc1cc(-c2cc3c(N[C@H](c4ccc5c(c4)S(=O)(=O)CCC5)C(C)C)ncnc3[nH]2)co1 (single isomer, unassigned) [ASAP-0011169] : T

Req: clint >= 60 µL/min/mg for CC(C)(C)[C@H](Nc1ncnc2[nH]c(-c3cnn(CC(N)=O)c3)cc12)c1ccc2c(c1)OCCO2 (single isomer, unassigned) [ASAP-0012330] ?
Resp: T

Req: clint >= 60 µL/min/mg for COc1ccc(C(NC(=O)c2ncnc3[nH]ccc23)C(C)c2nnn[nH]2)cc1 (mixture of isomers) [ASAP-0010744] ?
Resp: F

Req: clint >= 60 µL/min/mg for CC(C)[C@@H](Nc1ncnc2[nH]c(C(=O)N[C@H]3CCN(C)C3)cc12)c1ccc2c(c1)S(=O)(=O)CCC2 (single isomer, unassigned) [ASAP-0012336] ?
Resp: F

Req: clint >= 60 µL/min/mg for CCNC(=O)c1cc2c(N[C@@H](c3ccc4c(c3)S(=O)(=O)CCO4)C(C)C)ncnc2[nH]1 (racemic) [ASAP-0012317] ?
Resp: T

Req: clint >= 60 µL/min/mg for CC(C)(C)[C@H](Nc1ncnc2[nH]c(-c3cnn(CC(N)=O)c3)cc12)c1ccc2c(c1)OCCO2 (single isomer, unassigned) [ASAP-0012332] ?
Resp: T

Req: clint >= 60 µL/min/mg for CC(C)[C@H](Nc1ncnc2[nH]c(-c3cnn(C)c3C#N)cc12)c1ccc2c(c1)NC(=O)CO2 (single isomer, unassigned) [ASAP-0013256] ?
Resp: F

###

experiment summary: Hepatic microsomal stability, HLM
Format: in vitro ADME, human
experimental conditions: In vitro human liver microsomal stability
Field 'label' (enum: condition met / condition not met). Set to condition met when perc_remaining is strictly under 9%; else condition not met.

Worked cases, answers included:
CNC(=O)c1cc2c(N[C@H](c3ccc4c(c3)S(=O)(=O)CCC4)C(C)C)ncnc2[nH]1 (single isomer, unassigned) : condition not met
CNCc1cc(-c2cc3c(N[C@@H](c4ccc5c(c4)S(=O)(=O)NCC5)C(C)C)ncnc3[nH]2)co1 : condition not met
CC(C)[C@@H](Nc1ncnc2[nH]c(-c3cnn(C)c3)cc12)c1ccc2c(c1)S(=O)(=O)CCC2 [ASAP-0008678] : condition not met
CCNC(=O)c1cc2c(N[C@H](c3ccc4c(c3)OCCO4)C(C)C)ncnc2[nH]1 (single isomer, unassigned) [ASAP-0013827] : condition met

Moving on to another compound below.
Req: is_below(perc_remaining, 9%) for CC(C)[C@@H](Nc1ncnc2[nH]c(-c3cnn(C)c3)cc12)c1ccc2c(c1)S(=O)(=O)CCC2 (single isomer, unassigned) [ASAP-0012329] ?
Resp: condition met
